Test system: human hepatocellular carcinoma cell line HepG-2
assayRemarks: MTT assay, inhibition of tumor cell growth (HepG2)
Format: cell-based
condition: 72 hours incubation, read-out: IC50 on the tumor cells HepG2
assayEndpoint: log10 of IC50 (log10 of the value in µM)
Give log10 of IC50, with IC50 taken in µM.

1) CC(C)N1C(=O)C(=C2C(=O)Oc3ccccc32)c2cnc(F)cc21	1.29
2) CCN1C(=O)C(=C2Oc3ccccc3C2=NOC)c2ccccc21	0.23
3) CCN1C(=O)C(=C2Oc3c(Cl)cccc3C2=O)c2cccnc21 [Compound 79]	1.50

Query: # log10 of IC50 lookup, item CC(C)N1C(=O)C(=C2Oc3ccccc3C2=O)c2cc(Cl)ccc21
Response: 1.65

Query: Value lookup for log10 of IC50; key = CC(C)N1C(=O)C(=C2Oc3ccccc3C2=NO)c2cc(Cl)cnc21
Response: 1.90

Query: Reported log10 of IC50, compound CCN1C(=O)C(=C2Oc3ccc(Cl)cc3C2=O)c2cc(Cl)ccc21 : ____
Response: 1.08

Query: Entry CC(C)N1C(=O)C(=C2Oc3ccccc3C2=O)c2cccc(F)c21 has what log10 of IC50?
Response: 1.45

Query: What measured log10 of IC50 goes with Cc1ccc2c(c1)C(=C1Oc3ccccc3C1=O)C(=O)N2C(C)C ?
Response: 1.62

Query: Sample CON=C1C(=C2C(=O)Nc3c(F)cccc32)Oc2ccccc21 — what was its log10 of IC50?
Response: 0.46

###

Documented IC50 across a set of compounds
System: human hepatocellular carcinoma cell line HepG-2
assayRemarks: MTT assay, inhibition of tumor cell growth (HepG2)
Type: cell-based
condition: 72 hours incubation, read-out: IC50 on the tumor cells HepG2
Field format: number, assumed µM, no unit text.

1) O=C1Oc2ccccc2C1=C1C(=O)N(Cc2ccccc2)c2ccc(Cl)cc21	27.5

Query: Request: IC50, test system human hepatocellular carcinoma cell line HepG-2, entry CON=C1C(=C2C(=O)N(Cc3ccccc3)c3ncccc32)Oc2ccccc21
Response: 30.2

Query: Missing value: IC50, human hepatocellular carcinoma cell line HepG-2, entry O=C1Nc2ccncc2C1=C1C(=O)Oc2ccccc21 . Fill in?
Response: 15.6

Query: Give recorded IC50 with human hepatocellular carcinoma cell line HepG-2 for the following compound: CN1C(=O)C(=C2C(=O)Oc3ccccc32)c2ccc(Cl)cc21
Response: 14.2

Query: Lab note: need IC50 with human hepatocellular carcinoma cell line HepG-2 for entry CON=C1C(=C2C(=O)N(C(C)C)c3cc(Cl)ccc32)Oc2ccc(Cl)cc21 , please look it up.
Response: 5.4

Query: Give IC50 (human hepatocellular carcinoma cell line HepG-2) of the following compound: CCN1C(=O)C(=C2Oc3ccccc3C2=NOC)c2cccc(F)c21
Response: 2.1

Query: Which IC50 is reported with human hepatocellular carcinoma cell line HepG-2 for this entry: Cc1nccc2c1C(=C1Oc3ccccc3C1=O)C(=O)N2C(C)C ?
Response: 18.5

Query: // lookup IC50 | system=human hepatocellular carcinoma cell line HepG-2 | key= CCN1C(=O)C(=C2Oc3ccccc3C2=O)c2cc(C)ccc21
Response: 19

Query: Which IC50 is reported with human hepatocellular carcinoma cell line HepG-2 for this entry: CCN1C(=O)C(=C2Oc3ccccc3C2=NO)c2ccc(Cl)cc21 ?
Response: 3

Query: Under human hepatocellular carcinoma cell line HepG-2: IC50 value of O=C1Oc2ccccc2C1=C1C(=O)N(Cc2ccccc2)c2ncccc21 ?
Response: 42.3
